test system: Nilaparvata lugens; assay: Insecticidal activity against Nilaparvata lugens by spraying (mortality after 24 hours); assay type: in vivo; conditions: 500 ppm; spraying 2 ml; counted after 24 hours
Mortality (%) (500 ppm) Nilaparvata lugens for assorted compounds
Give the quantity in %, number only.

{"Compound": "CC1C(O)N2CCN(Cc3ccc(Cl)nc3)C2=C([N+](=O)[O-])C1(C)C (centres unmarked)", "U": "%", "Measured": 97}
{"Compound": "C#CCOC1CC(C)C([N+](=O)[O-])=C2N(Cc3ccc(Cl)nc3)CCN21 (centres unmarked)", "U": "%", "Measured": 67}
{"Compound": "CCC1CC(O)N2CCN(Cc3ccc(Cl)nc3)C2=C1[N+](=O)[O-] (centres unmarked)", "U": "%", "Measured": 98}
{"Compound": "CCCC1CC(OCC)N2CCN(Cc3ccc(Cl)nc3)C2=C1[N+](=O)[O-] (centres unmarked)", "U": "%", "Measured": 100}
{"Compound": "CCCCC1CC(O)N2CCN(Cc3ccc(Cl)nc3)C2=C1[N+](=O)[O-] (centres unmarked)", "U": "%", "Measured": 50}

Give recorded Mortality (%) (500 ppm) Nilaparvata lugens. CCCOC1C(C)CC([N+](=O)[O-])=C2N(Cc3ccc(Cl)nc3)CCN21 (centres unmarked)
98

Give recorded Mortality (%) (500 ppm) Nilaparvata lugens. COC1CC(c2ccccc2)C([N+](=O)[O-])=C2N(Cc3ccc(Cl)nc3)CCN21 (centres unmarked)
0

Give recorded Mortality (%) (500 ppm) Nilaparvata lugens. COC1C([N+](=O)[O-])=C2N(Cc3ccc(Cl)nc3)CCN2C(O)C1C (centres unmarked)
97

* * *

Mortality (%) (500 ppm) Nilaparvata lugens for assorted compounds
system: Nilaparvata lugens; test: Insecticidal activity against Nilaparvata lugens by spraying (mortality after 24 hours); type: in vivo; settings: 500 ppm; spraying 2 ml; counted after 24 hours

{"Compound": "CCOC1CC(C)C([N+](=O)[O-])=C2N(Cc3cnc(Cl)s3)CCN21 (stereo not drawn)", "Measured": "100%"}
{"Compound": "CC1CC(OCC(F)(F)F)N2CCN(Cc3ccc(Cl)nc3)C2=C1[N+](=O)[O-] (stereo not drawn)", "Measured": "100%"}
{"Compound": "CCC1C(O)N2CCN(Cc3ccc(Cl)nc3)C2=C([N+](=O)[O-])C1(C)C (stereo not drawn)", "Measured": "88%"}
{"Compound": "COC1C(C)C([N+](=O)[O-])=C2N(Cc3ccc(Cl)nc3)CCN2C1O (stereo not drawn)", "Measured": "100%"}
{"Compound": "CCC1CC([N+](=O)[O-])=C2N(Cc3ccc(Cl)nc3)CCN2C1OC (stereo not drawn)", "Measured": "80%"}

Give recorded Mortality (%) (500 ppm) Nilaparvata lugens. COC1CC([N+](=O)[O-])=C2N(Cc3cnc(Cl)s3)CCN2C1O (stereo not drawn)
90%

Give recorded Mortality (%) (500 ppm) Nilaparvata lugens. CCCC1CC([N+](=O)[O-])=C2N(Cc3ccc(Cl)nc3)CCN2C1O (stereo not drawn)
96%

Give recorded Mortality (%) (500 ppm) Nilaparvata lugens. CCOC1CC(C)C([N+](=O)[O-])=C2N(CC3CCOC3)CCN21 (stereo not drawn)
100%

Give recorded Mortality (%) (500 ppm) Nilaparvata lugens. CCCOC1CC(C)C([N+](=O)[O-])=C2N(Cc3cnc(Cl)s3)CCN21 (stereo not drawn)
100%

Give recorded Mortality (%) (500 ppm) Nilaparvata lugens. CCC1CC(OC(C)C)N2CCN(Cc3ccc(Cl)nc3)C2=C1[N+](=O)[O-] (stereo not drawn)
95%

Give recorded Mortality (%) (500 ppm) Nilaparvata lugens. CCCC1CC([N+](=O)[O-])=C2N(Cc3ccc(Cl)nc3)CCN2C1OCC (stereo not drawn)
97%

Give recorded Mortality (%) (500 ppm) Nilaparvata lugens. CCOC1CC([N+](=O)[O-])=C2N(Cc3ccc(Cl)nc3)CCN2C1O (stereo not drawn)
91%
